Where do the numbers come from? From the supplement of paper PMC10065799.

# maps each entry to its phosphorylation enrichment
# Tested on: Fer (mouse)
# test.summary: phosphorylation enrichment, bacterial display (enrichment ratio); higher = better substrate or ligand; peptides without Tyr show the background

# count of solved cases: 5
>  <primary.sequence>
SARVRYLMAEK [LDHB_Y173_F171V]

>  <target.system>
Fer (mouse)

>  <result>
0.439

$$$$
>  <primary.sequence>
RGERPYGGGGG [FUS_Y526_R522G]

>  <target.system>
Fer (mouse);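 also: frequency after pTyr selection over input frequency; kinase dosed for 20-30% of maximal phosphorylation in three min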

>  <result>
0.337

$$$$
>  <primary.sequence>
PTATSYNPNLA [GABRA1_Y375_T376N]

>  <target.system>
Fer (mouse);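 also: frequency after pTyr selection over input frequency; kinase dosed for 20-30% of maximal phosphorylation in three min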

>  <result>
0.824

$$$$
>  <primary.sequence>
QKDIFYGLRSL [IGSF10_Y126_T124I]

>  <target.system>
Fer (mouse);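 also: frequency after pTyr selection over input frequency; kinase dosed for 20-30% of maximal phosphorylation in three min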

>  <result>
0.405

$$$$
>  <primary.sequence>
TVSRPYSFIEF [SEC22B_Y110]

>  <target.system>
Fer (mouse);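 also: 11-residue human phosphosite peptides and single-mutation variants displayed on the E. coli surface, counted by deep sequencing, each peptide's frequency after selection divided by its frequency in the unselected input library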;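 also: frequency after pTyr selection over input frequency; kinase dosed for 20-30% of maximal phosphorylation in three min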

>  <result>
11.3

$$$$

I have this sequence here, VHNLDYYKQTT [FGFR3_Y647_K650Q] , and I need its recorded phosphorylation enrichment. 0.525

I have this sequence here, VYAADYYKLLG [ROR2_Y645] , and I need its recorded phosphorylation enrichment. 0.516

I have this sequence here, AGVIIYTSRFQ [PFAS_Y538_A535V] , and I need its recorded phosphorylation enrichment. 0.574

I have this sequence here, VGTKRYMALEV [ACVRL1_Y375_P378L] , and I need its recorded phosphorylation enrichment. 0.418

I have this sequence here, NVDGKYSYLKV [GRM3_Y478_G475D] , and I need its recorded phosphorylation enrichment. 0.515
